- Test system: WERI-Rb1
Below, each entry is listed with its recorded FITC-labeled Pri-MP uptake (Endocytosis species) alone or with added inhibitor.
Numeric answer only, unit % assumed.

Some solved cases for reference:
- COMPOUND: "CCCCC[C@@H](O)[C@H]1C(=O)O[C@H](C)[C@@H](O)/C=C/C=C/C=C/C=C/C=C(\\C)[C@@H](O)C[C@H](O)C[C@H](O)C[C@H](O)C[C@H](O)C[C@H](O)C[C@@H]1O"
  SYSTEM_UNDER_TEST: "WERI-Rb1"
  UNIT_OF_MEASURE: "%"
  OBS_VALUE: 84.8
- COMPOUND: "C=C1[C@@H](C)[C@H]2[C@H](Cc3ccccc3)NC(=O)[C@]23[C@H](OC(C)=O)/C=C/[C@@](C)(O)C(=O)[C@@H](C)C/C=C/[C@H]3[C@@H]1O"
  SYSTEM_UNDER_TEST: "WERI-Rb1"
  UNIT_OF_MEASURE: "%"
  OBS_VALUE: 38.4
- COMPOUND: "CN(C)CCCN1c2ccccc2Sc2ccc(Cl)cc21"
  SYSTEM_UNDER_TEST: "WERI-Rb1"
  UNIT_OF_MEASURE: "%"
  OBS_VALUE: 87.0
- COMPOUND: "N=C(N)NC(=O)c1nc(Cl)c(N)nc1N [amiloride]"
  SYSTEM_UNDER_TEST: "WERI-Rb1"
  UNIT_OF_MEASURE: "%"
  OBS_VALUE: 22.9
- COMPOUND: "O=C(N/N=C/c1ccc(O)c(O)c1)c1cc2ccccc2cc1O"
  SYSTEM_UNDER_TEST: "WERI-Rb1"
  UNIT_OF_MEASURE: "%"
  OBS_VALUE: 70.1

Find the recorded FITC-labeled Pri-MP uptake (Endocytosis species) alone or with added inhibitor belonging to O=c1c(-c2ccc(O)cc2)coc2cc(O)cc(O)c12 and report it.
87.0
